Target: T1, recombinant human TROP2 extracellular domain (aa 1-274) comprising His tag (human, UniProt P09758 27-274)
T1 construct: Used here for all assays on recombinant human TROP2 (ELISA, immunoblot, SPR, crystal), although only some of them name the catalogue number; also called human recombinant TROP2; recombinant human TROP2 protein; not shown: His tag
T1 sequence: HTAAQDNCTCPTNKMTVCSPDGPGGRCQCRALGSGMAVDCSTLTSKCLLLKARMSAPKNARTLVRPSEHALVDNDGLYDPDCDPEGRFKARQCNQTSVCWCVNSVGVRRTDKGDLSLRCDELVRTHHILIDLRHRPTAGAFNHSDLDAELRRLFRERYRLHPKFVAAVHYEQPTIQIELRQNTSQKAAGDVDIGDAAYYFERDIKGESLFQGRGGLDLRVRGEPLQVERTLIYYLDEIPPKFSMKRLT
Assay: competitive ELISA on coated recombinant human TROP2, competitor KD002-His (14285.7 pM per text), anti-His-HRP
QUANTITY: IC50 (read off the curve)

A selection of reference data follows.
BINDER	IC50 (read off the curve)
KD001 (antibody, human IgG1, V domains shown, also called anti-TROP2 sdAb KD001) VH: QVQLQESGGGMVHPGGSLRLSCAASGFTFSGSDMSWVRQAPGKGPEWVSYITSGGTTYYPDSVKGRFTISRDNAKNTLYLQMNSLTPDDTALYRCAKARLTDSHYVEDAWGQGTQVTVSS	~40 nM
KD005 (antibody, human IgG1, V domains shown, also called anti-TROP2 sdAb KD005) VH: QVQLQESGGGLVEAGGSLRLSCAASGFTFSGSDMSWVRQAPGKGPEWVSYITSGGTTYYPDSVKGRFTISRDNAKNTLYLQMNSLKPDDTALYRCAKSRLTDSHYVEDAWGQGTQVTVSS	~40 nM
KD004 (antibody, human IgG1, V domains shown, also called anti-TROP2 sdAb KD004) VH: QVQLQESGGGLVQPGRSLRLSCAASGFTFSGSDMSWVRQAPGKGPEWVSYITGSGTTYYPDSVKGRFTTSRDNAKNMLYLQMNSLKPDDTALYRCAKARLTDSHYVEDAWGQGTQVTVSS	~40 nM
KD003 (antibody, human IgG1, V domains shown, also called anti-TROP2 sdAb KD003) VH: QVQLQESGGGMVQPGGSLRLSCAASGFTFSNYDMSWVRQAPGKGPEWVSYINAGGSNTDYPDSVKGRFTISRDNAKNMLYLLMNNLKPEDTALYRCARAKLTDTHYVEDYWGQGTQVTVSS	~40 nM

Please report the recorded IC50 (read off the curve) for KD002 (antibody, human IgG1, V domains shown, also called anti-TROP2 sdAb KD002) VH: QVQLQESGGGMVQVGGSLRLSCAASGFPFSSADMSWVRQAPGKGPEWVSYINADGSKTYYPDSVKGRFTISRDNAKNTLYLLMNNLKPEDTALYRCARAKLTDTHYVEDYWGQGTQVTVSS . ~60 nM
